System: HT29
Assay: NCI-60 cell line panel: HT29
Assay type: cell-based
Settings: Homo sapiens, HT-29, Colon Cancer
Experimental: It was carried out at the NCI, Bethesda, MD, USA, utilizing their standard protocol.
parameter: pIC50
Note on pIC50: it is the negative log10 of concentration, concentration in mol/L.

Report measured pIC50; entry is CC(C)NC(=O)c1cc(-c2ccc(NC(=O)Nc3ccc(N4CCN(C)CC4)c(C(F)(F)F)c3)cc2)nc2cccnc12 [Compound 13e] 6.17

Please report the measured pIC50 for CNC(=O)c1cc(-c2ccc(NC(=O)Nc3ccc(N4CCN(C)CC4)c(C(F)(F)F)c3)cc2)nc2cccnc12 [Compound 13b] 5.72

Identify the reported pIC50 for the following entry. CNC(=O)c1cc(Oc2ccc(NC(=O)Nc3ccc(Cl)c(C(F)(F)F)c3)cc2)ccn1 [Sorafenib, reference compound] 5.70

Respond only with pIC50 recorded for CCN1CCN(c2ccc(NC(=O)Nc3ccc(-c4cc(C(=O)NC(C)C)c5ncccc5n4)cc3)cc2C(F)(F)F)CC1 [Compound 13f] 6.17

State its pIC50 for this compound: CCN1CCN(c2ccc(NC(=O)Nc3ccc(-c4cc(C(=O)NC)c5ncccc5n4)cc3)cc2C(F)(F)F)CC1 [Compound 13c] 6.28

* * *

Please respond with reported TGI for every item in the list.
Tested on: 786-0
Test: NCI-60 cell line panel: 786-0
Format: cell-based
Settings: Renal Cancer, total growth inhibition
Description: It was carried out at the NCI, Bethesda, MD, USA, utilizing their standard protocol.
Please reply with the bare figure in µM and do not write the unit itself.

// fetch TGI for CNC(=O)c1cc(Oc2ccc(NC(=O)Nc3ccc(Cl)c(C(F)(F)F)c3)cc2)ccn1 [Sorafenib, reference compound] ; system: 786-0 5.01

// fetch TGI; item: CNC(=O)c1cc(-c2ccc(NC(=O)Nc3ccc(N4CCN(C)CC4)c(C(F)(F)F)c3)cc2)nc2cccnc12 [Compound 13b] ; system: 786-0 3.52

Enter measured TGI, system 786-0, for the compound shown: CCN1CCN(c2ccc(NC(=O)Nc3ccc(-c4cc(C(=O)NC(C)C)c5ncccc5n4)cc3)cc2C(F)(F)F)CC1 [Compound 13f] 1.03

Give TGI; test system 786-0; compound CC(C)NC(=O)c1cc(-c2ccc(NC(=O)Nc3ccc(N4CCN(C)CC4)c(C(F)(F)F)c3)cc2)nc2cccnc12 [Compound 13e] 1.1

Retrieve TGI on 786-0; query CCN1CCN(c2ccc(NC(=O)Nc3ccc(-c4cc(C(=O)NC)c5ncccc5n4)cc3)cc2C(F)(F)F)CC1 [Compound 13c] 0.58

* * *

Consider the following compounds; for each one, report its TGI.
Test system: MALME-3M
Experiment: NCI-60 cell line panel: MALME-3M
Assay type: cell-based
Details: Melanoma, total growth inhibition, in µM (unit assumed)
Answer with the value's number alone.

Retrieve TGI measured for CC(C)NC(=O)c1cc(-c2ccc(NC(=O)Nc3ccc(N4CCN(C)CC4)c(C(F)(F)F)c3)cc2)nc2cccnc12 [Compound 13e] and print it. 1.18

Identify measured TGI associated with CNC(=O)c1cc(Oc2ccc(NC(=O)Nc3ccc(Cl)c(C(F)(F)F)c3)cc2)ccn1 [Sorafenib, reference compound] 39.81

Report measured TGI; entry is CNC(=O)c1cc(-c2ccc(NC(=O)Nc3ccc(N4CCN(C)CC4)c(C(F)(F)F)c3)cc2)nc2cccnc12 [Compound 13b] 3.21

// fetch TGI given entry CCN1CCN(c2ccc(NC(=O)Nc3ccc(-c4cc(C(=O)NC)c5ncccc5n4)cc3)cc2C(F)(F)F)CC1 [Compound 13c] 0.53

Please give measured TGI of the following entry: CCN1CCN(c2ccc(NC(=O)Nc3ccc(-c4cc(C(=O)NC(C)C)c5ncccc5n4)cc3)cc2C(F)(F)F)CC1 [Compound 13f] 1.05

* * *

Test system: EKVX
Experiment: NCI-60 cell line panel: EKVX
Assay type: cell-based
Conditions: Homo sapiens, Non-Small Cell Lung Cancer
parameter: IC50 (nM)
Answer format: numeric, nM implied, no suffix.

Answer with the recorded IC50 for the compound listed here: CCN1CCN(c2ccc(NC(=O)Nc3ccc(-c4cc(C(=O)NC)c5ncccc5n4)cc3)cc2C(F)(F)F)CC1 [Compound 13c] 2940

Answer with the recorded IC50 of CNC(=O)c1cc(-c2ccc(NC(=O)Nc3ccc(N4CCN(C)CC4)c(C(F)(F)F)c3)cc2)nc2cccnc12 [Compound 13b] only. 17900

Identify measured IC50 corresponding to CCN1CCN(c2ccc(NC(=O)Nc3ccc(-c4cc(C(=O)NC(C)C)c5ncccc5n4)cc3)cc2C(F)(F)F)CC1 [Compound 13f] 1610

Fill in reported IC50 for this entry: CC(C)NC(=O)c1cc(-c2ccc(NC(=O)Nc3ccc(N4CCN(C)CC4)c(C(F)(F)F)c3)cc2)nc2cccnc12 [Compound 13e] 770

* * *

parameter: IC50 (nM)
// note: answer is a bare numeric in nM

Give Flt4 (Homo sapiens) IC50 for the following compound: CCN1CCN(c2ccc(NC(=O)Nc3ccc(-c4cc(C(=O)NC)c5ncccc5n4)cc3)cc2C(F)(F)F)CC1 [Compound 13c] 945

Provide Flt4 (Homo sapiens) IC50 reading for CNC(=O)c1cc(-c2ccc(NC(=O)Nc3ccc(N4CCN(C)CC4)c(C(F)(F)F)c3)cc2)nc2cccnc12 [Compound 13b] . 366

* * *

System: NCI-H460
Experiment: NCI-60 cell line panel: NCI-H460
Format: cell-based
Conditions: Homo sapiens, Non-Small Cell Lung Cancer
parameter: IC50
Just the number plus its unit, please.

Quick one: give measured IC50 for CC(C)NC(=O)c1cc(-c2ccc(NC(=O)Nc3ccc(N4CCN(C)CC4)c(C(F)(F)F)c3)cc2)nc2cccnc12 [Compound 13e] 700 nM

Give the measured IC50 for CCN1CCN(c2ccc(NC(=O)Nc3ccc(-c4cc(C(=O)NC)c5ncccc5n4)cc3)cc2C(F)(F)F)CC1 [Compound 13c] 660 nM

State its IC50 for this compound: CNC(=O)c1cc(-c2ccc(NC(=O)Nc3ccc(N4CCN(C)CC4)c(C(F)(F)F)c3)cc2)nc2cccnc12 [Compound 13b] 3190 nM

Identify measured IC50 associated with CCN1CCN(c2ccc(NC(=O)Nc3ccc(-c4cc(C(=O)NC(C)C)c5ncccc5n4)cc3)cc2C(F)(F)F)CC1 [Compound 13f] 620 nM

* * *

What TGI was measured for each of the following?
Test system: HCT-15
Test: NCI-60 cell line panel: HCT-15
Type: cell-based
Settings: Colon Cancer, total growth inhibition
Respond with the bare value in nM.

Report measured TGI; entry is CNC(=O)c1cc(-c2ccc(NC(=O)Nc3ccc(N4CCN(C)CC4)c(C(F)(F)F)c3)cc2)nc2cccnc12 [Compound 13b] 4330

Report measured TGI; entry is CC(C)NC(=O)c1cc(-c2ccc(NC(=O)Nc3ccc(N4CCN(C)CC4)c(C(F)(F)F)c3)cc2)nc2cccnc12 [Compound 13e] 1410

Look up TGI of CCN1CCN(c2ccc(NC(=O)Nc3ccc(-c4cc(C(=O)NC)c5ncccc5n4)cc3)cc2C(F)(F)F)CC1 [Compound 13c] and report it. 700

Hello, please tell me recorded TGI for this one: CNC(=O)c1cc(Oc2ccc(NC(=O)Nc3ccc(Cl)c(C(F)(F)F)c3)cc2)ccn1 [Sorafenib, reference compound] 3160

Specify TGI for CCN1CCN(c2ccc(NC(=O)Nc3ccc(-c4cc(C(=O)NC(C)C)c5ncccc5n4)cc3)cc2C(F)(F)F)CC1 [Compound 13f] and stop. 1350

* * *

Tested on: IGROV1
Experiment: NCI-60 cell line panel: IGROV1
Format: cell-based
Details: Homo sapiens, IGROV-1, Ovarian Cancer
parameter: IC50 (µM)
// note: answer is a bare numeric in µM

# return recorded IC50 for input CCN1CCN(c2ccc(NC(=O)Nc3ccc(-c4cc(C(=O)NC)c5ncccc5n4)cc3)cc2C(F)(F)F)CC1 [Compound 13c] 3.01

Look up IC50 of CNC(=O)c1cc(-c2ccc(NC(=O)Nc3ccc(N4CCN(C)CC4)c(C(F)(F)F)c3)cc2)nc2cccnc12 [Compound 13b] and report it. 17.7

Answer with the recorded IC50 of CC(C)NC(=O)c1cc(-c2ccc(NC(=O)Nc3ccc(N4CCN(C)CC4)c(C(F)(F)F)c3)cc2)nc2cccnc12 [Compound 13e] only. 0.74

Determine from records and report IC50 for CCN1CCN(c2ccc(NC(=O)Nc3ccc(-c4cc(C(=O)NC(C)C)c5ncccc5n4)cc3)cc2C(F)(F)F)CC1 [Compound 13f] 1.42

* * *

Test system: SR
Experiment: NCI-60 cell line panel: SR
Format: cell-based
Details: Homo sapiens, Leukemia
Provide the recorded IC50 for the entries that follow.
Answer format reminder: number followed by unit.

Item CC(C)NC(=O)c1cc(-c2ccc(NC(=O)Nc3ccc(N4CCN(C)CC4)c(C(F)(F)F)c3)cc2)nc2cccnc12 [Compound 13e] : provide IC50 1000 nM

Name the recorded IC50 of the item CNC(=O)c1cc(-c2ccc(NC(=O)Nc3ccc(N4CCN(C)CC4)c(C(F)(F)F)c3)cc2)nc2cccnc12 [Compound 13b] in your answer. 9970 nM

Return value of IC50 for input CCN1CCN(c2ccc(NC(=O)Nc3ccc(-c4cc(C(=O)NC)c5ncccc5n4)cc3)cc2C(F)(F)F)CC1 [Compound 13c] , no commentary. 670 nM

Identify IC50 associated with the molecule CCN1CCN(c2ccc(NC(=O)Nc3ccc(-c4cc(C(=O)NC(C)C)c5ncccc5n4)cc3)cc2C(F)(F)F)CC1 [Compound 13f] 1050 nM
